// reported IC50 for each item listed
- target.entity: BRD4_2 (Homo sapiens, UniProt O60885)
- Construct: contains two tandem bromodomains (BrD1 and BrD2)
- experiment.summary: Fluorescence anisotropy binding assay (competition with FITC-labeled MS417 probe), BRD4_2
- test.settings: FITC-MS417 probe 80 nM, PBS pH 7.4, 1 hour, 25° C.

Worked set:
{"columns": ["compound", "IC50"],
 "data": [
  ["CC1=C(Nc2ccc(Cl)cc2C(=O)O)CCC1=O [Examples 02-5]", "> 10 µM"],
  ["CC1=C(Nc2ccc3[nH]c(C(=O)O)cc3c2)CCCC1=O [Example 01-64]", "1 to 10 µM"],
  ["COc1ccc(NC(=O)c2ccc(NC3=C(C)C(=O)CC3)c(F)c2)cc1 [Example 05-17]", "1 to 10 µM"],
  ["CC1=C(Nc2ccccc2C(N)=O)CCC1=O [Example 01-18]", "> 10 µM"],
  ["CC1=C(Nc2ccc(C(=O)Nc3cccc(C)c3)cc2Cl)CCC1=O [Example 04-21]", "1 to 10 µM"]
]}

QUERY: Give recorded IC50. CC1=C(Nc2cccc(-c3cn(Cc4ccccc4F)nn3)c2)CCC1=O [Examples 06-8]
RESULT: 1 to 10 µM

QUERY: Give recorded IC50. CC1=C(Nc2ccc(NC(=O)C3CCCCC3)cc2Cl)CCCC1=O [Example 05-49]
RESULT: 1 to 10 µM

QUERY: Give recorded IC50. COC(=O)c1cccc(NC2=C(C)C(=O)CC2)c1 [Example 01-4]
RESULT: > 10 µM

QUERY: Give recorded IC50. CC1=C(Nc2ccc(C(=O)N(C)c3ccccc3)cc2)CCC1=O [Example 03-2]
RESULT: > 10 µM

QUERY: Give recorded IC50. CC1=C(N[C@H]2CC[C@@H](C(=O)Nc3ccccc3)CC2)CCC1=O [Example 04-36]
RESULT: > 10 µM

QUERY: Give recorded IC50. CC1=C(Nc2cccc3ccccc23)CCC1=O [Example 01-26]
RESULT: 1 to 10 µM

QUERY: Give recorded IC50. CC1=C(Nc2ccc(C(=O)N(C)C)cc2)CCC1=O [Example 03-20]
RESULT: > 10 µM

QUERY: Give recorded IC50. COc1ccc(NC(=O)c2cccc(NC3=C(C)C(=O)CC3)c2)cc1 [Example 04-4]
RESULT: 1 to 10 µM

QUERY: Give recorded IC50. CC1=C(Nc2cc(NC(=O)C3CCCCC3)ccc2Cl)CCCC1=O [Example 05-45]
RESULT: 1 to 10 µM

----------
- target.entity: first bromodomain (BrD1) of human BRD4 (Homo sapiens, UniProt O60885)
- Construct: the first bromodomain (BrD1) of human BRD4; poly-His (cleaved yes)
- experiment.summary: Fluorescence anisotropy binding assay (competition with FITC-labeled MS417 probe)
- test.settings: FITC-MS417 probe 80 nM, PBS pH 7.4, 1 hour, 25° C., read-out: BRD4_1 IC50
// reported IC50 for each item listed

{"columns": ["given.smiles", "IC50"],
 "data": [
  ["CC1=C(Nc2ccc3cc[nH]c3c2)CCCC1=O", "< 1000 nM"],
  ["CC1=C(Nc2cc(NS(=O)(=O)c3ccccc3C)ccc2Cl)CCC1=O", "< 1000 nM"],
  ["CC1=C(Nc2cccc3ccccc23)CCC1=O", "1000 to 10000 nM"]
]}

Now take the following compound into account.
QUERY: Give recorded IC50. CC(=O)Nc1ccc(Cl)c(NC2=C(C)C(=O)CC2)c1
RESULT: < 1000 nM

Where do the numbers come from? From patent US9884806B2.
